Each entry below carries its reported koff.
system name: T1, human IL-6 (Interleukin-6) (human, UniProt P05231 30-212)
T1 construct: also called 001 IL-6 antigen
protocol text: Biacore (SPR), antibody captured on anti-human Fc, IL-6 as analyte
Number in s⁻¹, nothing else.

Sample answers from the record:
Clone BA399-02 (antibody, V domains shown, also called BA399-2; BA399 clone #2) VH: QVQLVQSGAEVKKPGASVKVSCKASGFTFSSFSMSWIRQSPSRGLEWLGEISSGGSYTYYPDTKTGRFTISRDNAKNSLYLQMNSLRAEDTAVYYCARGQWGYYALDYWGQG VL: AIQLTQSPSSLSASVGDRVTITCYASSSVSYMYWYQQKPGQAPRLLIYDTSNLASGIPPRFSGSGYGTDFTLTINNIESEDAAYYFCQQWSGYPYTFGQG
9.11e-09
BA399_CPS_10 (antibody, V domains shown, also called Clone BA399-10; BA399_10) VH: QVQLVQSGAEVKKPGASVKVSCKASHFTFSSFSMSWIRQSPSRGLEWLGEISSGGSYHYYPDTVTGRFTISRDNAKNSLYLQMNSLRAEDTAVYYCARGQWGYYALDYWGQG VL: AIQLTQSPSSLSASVGDRVTITCYASSSVSYMYWYQQKPGQAPRLLIYDTLNLASGIPPRFSGSGYGTDFTLTINNIESEDAAYYFCQQWSGYPYTFGQG
1.82e-07
Clone BA399-09 (antibody, V domains shown, also called BA399-9; BA399 clone #9) VH: QVQLVQSGAEVKKPGASVKVSCKASGFTFSSFSMSWIRQSPSRGLEWLGEISSGGSYHYYPDTVTGRFTISRDNAKNSLYLQMNSLRAEDTAVYYCARGQWGYYALDYWGQG VL: AIQLTQSPSSLSASVGDRVTITCYASSSVSYMYWYQQKPGQAPRLLIYDTLNLASGIPPRFSGSGYGTDFTLTINNIESEDAAYYFCQQWSGYPYTFGQG
5.07e-08

Alright, here's another binder for you.
Which koff is listed for Clone BA399-05 (antibody, V domains shown, also called BA399-5) VH: QVQLVQSGAEVKKPGASVKVSCKASGFTFSSFAMSWIRQSPSRGLEWLGEISSGGSYTYYPDTKTGRFTISRDNAKNSLYLQMNSLRAEDTAVYYCARGQWGYYALDYWGQG VL: AIQLTQSPSSLSASVGDRVTITCYASSSVSYMYWYQQKPGQAPRLLIYDTSNLASGIPPRFSGSGYGTDFTLTINNIESEDAAYYFCQDWSGYPYTFGQG ?
2.86e-05

Recorded values, source patent US20100138945A1.
